B1: library; numbered along this chain (parent)
chain: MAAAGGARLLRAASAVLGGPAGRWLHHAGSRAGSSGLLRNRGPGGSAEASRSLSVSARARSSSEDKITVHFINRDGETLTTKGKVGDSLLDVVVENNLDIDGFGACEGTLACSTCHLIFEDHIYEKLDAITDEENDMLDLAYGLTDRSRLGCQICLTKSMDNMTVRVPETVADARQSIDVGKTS

variants of: B1; assay: scaled log2 fold change in cell abundance, elesclomol vs control (0 = silent mean, 1 = nonsense mean) (scaled log2 ratio); higher = higher viability under elesclomol (loss of FDX1 cuproptosis function); conditions: with ABC1 FDX1 KO; elesclomol 5 nM; glucose 10 mM; 14 days;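 note: variant abundance is its share of total variant reads in each endpoint sample, from next-generation sequencing of the integrated ORF PCR-amplified out of genomic DNA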
# label = yes if scaled log2 fold change >= -0.006 else no

Please review the entries below; each comes with its answer.
>>> assigned_class("L79T")
"no"
>>> assigned_class("R147V")
"yes"

For the next question, use this variant.
Task: I'd appreciate it if you could say whether `G102A` has scaled log2 fold change at least equal to -0.006.
Result: yes
